Data provenance: patent US4698352A

Task for the reader: assign each of the following compounds its reported MIC.
test system: E. coli NIHJ JC-2; assay: Antibacterial activity (MIC), agar dilution; format: cell-based; conditions: Escherichia coli, NIHJJC2, 20 h, E. coli NIHJ JC-2; 10^6 cells per ml; 37° C., 20 hours; read-out: MIC
Enter your answer as a number in µg/mL; do not include the unit.

(Q) Consider the compound CC(=O)Oc1ccc(-n2cc(C(=O)O)c(=O)cc2-c2cc3ccccc3s2)c(F)c1 and give its measured MIC.
(A) 0.39

(Q) MIC for CN1CCCc2cc(-c3cc(=O)c(C(=O)O)cn3-c3ccc(O)cc3)ccc21 ?
(A) 0.39

(Q) I have this compound here, CN(C)c1ccc(-c2cc(=O)c(C(=O)O)cn2-c2ccccc2F)cc1 , and I need its recorded MIC.
(A) 1.56

(Q) Find the recorded MIC belonging to O=C(O)c1cn(-c2ccc(O)cc2)c(-c2ccc(-c3cccs3)cc2)cc1=O and report it.
(A) 0.1

(Q) Fill in: MIC of CN(C)c1ccc(-c2cc(=O)c(C(=O)O)cn2-c2ccc(F)cc2)cc1 is ___
(A) 0.78

(Q) Looking for the measured MIC of O=C(O)c1cn(-c2ccc(O)cc2)c(-c2ccc3sccc3c2)cc1=O , can you help?
(A) 0.2

(Q) Look up MIC: O=C(O)c1cn(-c2ccc(O)cc2)c(-c2ccc3ccccc3c2)cc1=O
(A) 0.2

(Q) Would you mind telling me what MIC value was observed for CN1CCc2cc(-c3cc(=O)c(C(=O)O)cn3-c3ccc(O)cc3)ccc21 ?
(A) 0.2

(Q) Report MIC for Cc1cc(O)ccc1-n1cc(C(=O)O)c(=O)cc1C1CC=CCC1 (stereo not drawn) please.
(A) 0.39

(Q) Tell me the measured MIC of COc1ccc(-c2ccc(-c3cc(=O)c(C(=O)O)cn3-c3ccc(O)cc3)cc2)s1 , please.
(A) 0.39

(Q) May I ask what MIC has been recorded for O=C(O)c1cn(-c2ccc(O)cc2)c(-c2ccc(-c3ccccc3)cc2)cc1=O ?
(A) 0.39

(Q) Any idea what its MIC is? The compound is Cc1cc(O)ccc1-n1cc(C(=O)O)c(=O)cc1-c1ccc(N(C)C)cc1
(A) 0.1

(Q) Reported MIC, compound O=C(O)c1cn(-c2ccc(O)cc2)c(-c2ccc(-c3ccccc3)s2)cc1=O : ____
(A) 0.39

(Q) Suppose we examine the compound Cc1cc(O)ccc1-n1cc(C(=O)O)c(=O)cc1CCc1ccccc1 ; what MIC value has been reported?
(A) 3.13

(Q) Fill in: MIC of O=C(O)c1cn(-c2ccc(O)cc2F)c(-c2cc3ccccc3s2)cc1=O is ___
(A) 0.2

(Q) Which MIC is reported for this compound? Cc1cc(O)ccc1-n1cc(C(=O)O)c(=O)cc1-c1ccc2[nH]ccc2c1
(A) 0.39

(Q) Return reported MIC; argument: CN(C)c1ccc(-c2cc(=O)c(C(=O)O)cn2-c2ccc(O)cc2F)cc1
(A) 0.1

(Q) // MIC lookup, key: O=C(O)c1cn(-c2ccc(O)cc2)c(-c2ccc3ccsc3c2)cc1=O
(A) 0.2

(Q) I would be grateful if you could share the reported MIC for CN1CCOc2cc(-c3cc(=O)c(C(=O)O)cn3-c3ccc(O)cc3)ccc21 .
(A) 0.39

(Q) Can you share its MIC? I mean this compound: Cc1cc(O)ccc1-n1cc(C(=O)O)c(=O)cc1-c1ccc2c(c1)NCCN2C
(A) 0.39

(Q) Give its MIC value. Item: Cc1nc(-c2ccc(-c3cc(=O)c(C(=O)O)cn3-c3ccc(O)cc3C)cc2)co1
(A) 0.1

(Q) Value lookup for MIC; key = CN(C)c1ccc(-c2cc(=O)c(C(=O)O)cn2-c2cccc3c(O)cccc23)cc1
(A) 0.39

(Q) Consider the compound shown here: CC(=O)Oc1ccc(-n2cc(C(=O)O)c(=O)cc2-c2ccc(N(C)C)cc2)cc1 What is its recorded MIC?
(A) 0.2
